The values you see were collected from PubChem BioAssay (NCI).

test: NCI Yeast Anticancer Drug Screen. Data for the mec2-1 strain (AID 157); settings: S. cerevisiae mec2-1 strain, at 50.0 µM, hits give high values
This is part of a sample that, as a whole, favours compounds with a hit. Of some 79,000 tested, about 15% had one in any assay.
If the reported growth inhibition equals or exceeds -10%, assign Fulfilled. If not, assign Not fulfilled.

Look over these answered cases.
CC(=C/c1ccccc1)/C=C1/SC(=S)N(C=C2C(=O)NC(=O)NC2=O)C1=O ... Fulfilled
Cc1ccc(S(=O)(=O)NC(=O)NCc2cccc(Cl)c2)cc1 ... Fulfilled
CC1OC(c2ccc3c(c2O)C(=O)C2=C(C3=O)C3(O)C(=O)CC(C)(O)CC3(O)C=C2)CC(O)C1O (stereo unspecified) ... Not fulfilled
O=C(Nc1ccc(Cl)c(Cl)c1)C(=O)Nn1c(=S)[nH]c2ccccc2c1=O ... Not fulfilled
C/C(CC(=O)CCC(=O)Nc1cccc(C(F)(F)F)c1)=N\NC(=O)NN ... Not fulfilled

q: Has Nc1ccc2cc(S(=O)(=O)O)cc(S(=O)(=O)O)c2c1 a recorded growth inhibition greater than or equal to -10%?
a: Fulfilled
